system: HT29 RAMS11 overexpressing cells; test: High-throughput viability assay (resazurin), 119 FDA-approved anticancer drugs, RAMS11 overexpressing cells (Clone1, Clone2); settings: OE1 (RAMS11 overexpression clone 1), 1 uM drug, 72 h, vs empty vector control
Starred links: 1 amine or outer side, 2 acyl side, 3 side chain; linkers in the order of their positions; H or OH if unused. Positions of bridges follow the written chain, without caps; N, C: chain ends. Non-standard residues stand in square brackets, D forms with d. Residues, ends and D or L forms follow the SMILES beside them. Chains are numbered I, II in the order given. Actinocin(9to1) = Cc1c2oc3c(C)ccc(C(=O)[*:1])c3nc-2c(C(=O)[*:2])c(N)c1=O; NMeV = CN[C@H](C(=O)O)C(C)C; Sar = CNCC(=O)O

| compound | Viability Fold Change |
| --- | --- |
| CC(=O)O[C@@]12CO[C@@H]1C[C@H](O)[C@@]1(C)C(=O)[C@H](O)C3=C(C)[C@@H](OC(=O)[C@H](O)[C@@H](NC(=O)OC(C)(C)C)c4ccccc4)C[C@@](O)([C@@H](OC(=O)c4ccccc4)[C@H]21)C3(C)C | 2.996 |
| O=c1[nH]c(=O)n([C@H]2C[C@H](O)[C@@H](CO)O2)cc1F [floxuridine, reference compound] | 2.291 |
| Cc1c2oc3c(C)ccc(C(=O)N[C@@H]4C(=O)N[C@H](C(C)C)C(=O)N5CCC[C@H]5C(=O)N(C)CC(=O)N(C)[C@@H](C(C)C)C(=O)O[C@@H]4C)c3nc-2c(C(=O)N[C@@H]2C(=O)N[C@H](C(C)C)C(=O)N3CCC[C@H]3C(=O)N(C)CC(=O)N(C)[C@@H](C(C)C)C(=O)O[C@@H]2C)c(N)c1=O [Dactinomycin] (I: T[dV]P[Sar][NMeV] / II: T[dV]P[Sar][NMeV]; ester I:1-I:C, II:1-II:C; linker I:N-II:N via Actinocin(9to1)) | 1.552 |
| N#Cc1ccc(C(c2ccc(C#N)cc2)n2cncn2)cc1 | 0.9536 |
| O=C(c1cc(Cc2n[nH]c(=O)c3ccccc23)ccc1F)N1CCN(C(=O)C2CC2)CC1 | 0.9061 |

###

system: HT29 RAMS11 overexpressing cells; assay: High-throughput viability assay (resazurin), 119 FDA-approved anticancer drugs, RAMS11 overexpressing cells (Clone1, Clone2); details: OE1 (RAMS11 overexpression clone 1), 1 uM drug, 72 h, vs empty vector control
Counter-ions that a name gives are not always drawn.
Entries and their Viability Fold Change values follow.

| compound | Viability Fold Change |
| --- | --- |
| COc1cccc2c1C(=O)c1c(O)c3c(c(O)c1C2=O)C[C@@](O)(C(=O)CO)C[C@@H]3O[C@H]1C[C@H](N)[C@@H](O)[C@H](C)O1 [Epirubicin hydrochloride] | 1.822 |
| CO[C@H]1C[C@@H]2CC[C@@H](C)[C@@](O)(O2)C(=O)C(=O)N2CCCC[C@H]2C(=O)O[C@H]([C@H](C)C[C@@H]2CC[C@@H](O)[C@H](OC)C2)CC(=O)[C@H](C)/C=C(\C)[C@@H](O)[C@@H](OC)C(=O)[C@H](C)C[C@H](C)/C=C/C=C/C=C/1C | 0.7403 |
| N.N.O=C([O-])C1(C(=O)[O-])CCC1.[Pt+2] | 1.047 |
